# System: Bacteria
# assay remarks: Minimum inhibitory activity against gram negative bacteria
# Assay type: functional
Quick list: MIC per entry.

# annotated cases, reported MIC shown
Which value of MIC has been reported for [O-][S+]1CCc2nn(-c3ccc(Cl)c(Cl)c3)c(O)c21 (stereo unspecified) in the records?
> 128 µg/mL

Same for Oc1c2c(nn1-c1ccc(Cl)c(Cl)c1)CCCC2
> 128 µg/mL

And then Oc1c2c(nn1-c1ccc(Cl)c(Cl)c1)CSC2 , what is it?
32 µg/mL

New cases:
Return reported MIC; argument: Oc1c2c(nn1-c1ccc(Cl)cc1)CSC2
> 128 µg/mL

// same read-out, input: Oc1c2c(nn1-c1ccc(Cl)cc1)COC2
> 128 µg/mL

Repeat with O=[N+]([O-])c1ccc(-n2nc3c(c2O)CSCC3)cc1
> 128 µg/mL

----------
Endpoint: IC50. System: UDP-N-acetylenolpyruvoylglucosamine reductase (Staphylococcus aureus). Items follow.
measured endpoint: IC50 (µM)

Take a look at these entries with their results.
Under UDP-N-acetylenolpyruvoylglucosamine reductase (Staphylococcus aureus): IC50 value of Oc1c2c(nn1-c1ccc(Br)cc1)CCS2 ?
12.1

Let us now turn to Oc1c2c(nn1-c1ccc(F)cc1)CCS2
50.8

What would you report for Oc1c2c(nn1-c1ccc(C(F)(F)F)cc1)CCS2 ?
38.4

[1] Oc1c2c(nn1-c1cccc(C(F)(F)F)c1)CCS2
[2] Oc1c2c(nn1-c1ccc(Cl)cc1)CSC2
For this pair, 1 and 2 , which shows a numerically higher IC50? Give the label of your selection.
2
(2: 831 µM, 1: 73.4 µM)

----------
# assay remarks: Minimum inhibitory activity against Streptococcus pneumoniae GC1894 (PRSP)
# Type: functional
measured endpoint: MIC (µg/mL)

Report MIC for Oc1c2c(nn1-c1ccccc1C(F)(F)F)CCS2 please.
8

[1] O=[N+]([O-])c1ccc(-n2nc3c(c2O)SCC3)cc1
[2] Oc1c2c(nn1-c1cccc(Cl)c1)CCS2
When the recorded MIC values are compared, which is smaller: that of 1 or that of 2 ? Kindly give the label for the entry you pick.
2

----------
# measured target: UDP-N-acetylmuramate--L-alanine ligase (Staphylococcus aureus, UniProt O31211)
pIC50: −log10 of the molar value.
measured endpoint: pIC50

Fill in the recorded pIC50 for this compound, with UDP-N-acetylmuramate--L-alanine ligase (Staphylococcus aureus, UniProt O31211) as test system: Oc1c2c(nn1-c1cccc(Cl)c1)CCS2
4.20

[a] O=[N+]([O-])c1cccc(-n2nc3c(c2O)SCC3)c1
[b] Oc1c2c(nn1-c1ccc(Br)cc1)CCS2
Endpoint returns the identifier whose pIC50 is numerically larger, either a or b . Output the label that corresponds to your choice.
b

----------
Target sequence: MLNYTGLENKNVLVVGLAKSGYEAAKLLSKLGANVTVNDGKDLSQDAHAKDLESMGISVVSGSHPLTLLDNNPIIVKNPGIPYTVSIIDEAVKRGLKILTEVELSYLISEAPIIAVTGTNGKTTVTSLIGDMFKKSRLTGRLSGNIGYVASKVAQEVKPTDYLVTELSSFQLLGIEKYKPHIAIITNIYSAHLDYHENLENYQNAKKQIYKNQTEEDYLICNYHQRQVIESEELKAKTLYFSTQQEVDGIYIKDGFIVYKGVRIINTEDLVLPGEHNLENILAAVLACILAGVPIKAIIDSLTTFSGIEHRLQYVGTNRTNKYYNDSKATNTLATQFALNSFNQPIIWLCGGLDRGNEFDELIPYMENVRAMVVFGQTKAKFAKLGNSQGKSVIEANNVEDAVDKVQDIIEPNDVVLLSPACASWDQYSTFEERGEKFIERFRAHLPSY
measured endpoint: IC50 (µM)

Bench note: what IC50 did N#Cc1cccc(-n2nc3c(c2O)SCC3)c1 show?
46.9

Then what about the compound Oc1c2c(nn1-c1ccc(C(F)(F)F)cc1)CCS2 ?
43

// query: Oc1c2c(nn1-c1ccc(Cl)c(Cl)c1)CCS2
48.8

[1] NC(=O)c1cccc(-n2nc3c(c2O)SCC3)c1
[2] Oc1c2c(nn1-c1ccc(Br)cc1)CCS2
[3] Oc1c2c(nn1-c1ccccc1)CCS2
Put the entries in order of IC50, starting with the largest number. The response must list the labels following the requested ordering.
3, 1, 2
